Exercise: for every item that follows, state its recorded recovery.
# Method description: Caco-2 cell monolayer membrane transport assay
# Assay conditions: human, Caco-2, Recovery rate in mass, Sample-02, Caco-2; A-B; Sample-02
Give bare numbers, in %.

As a guide, the following entries are already answered.
molecule="CO[C@H]1C[C@H]2OC[C@@]2(OC(C)=O)[C@H]2[C@H](OC(=O)c3ccccc3)[C@]3(O)C[C@H](OC(=O)[C@H](O)[C@@H](NC(=O)OC(C)(C)C)c4ccccn4)C(C)=C([C@@H](OC(=O)N(C)C)C(=O)[C@]12C)C3(C)C [PCMI-24]" test_readout=recovery measured_result=94.8
molecule="COC(=O)O[C@H]1C(=O)[C@]2(C)[C@@H](OC)C[C@H]3OC[C@@]3(OC(C)=O)[C@H]2[C@H](OC(=O)c2ccccc2)[C@]2(O)C[C@H](OC(=O)[C@H](O)[C@H](CC(C)C)NC(=O)OC(C)(C)C)C(C)=C1C2(C)C [PCMI-28]" test_readout=recovery measured_result=76.8
molecule="CO[C@H]1C(=O)[C@]2(C)[C@@H](OC(=O)N(C)C)C[C@H]3OC[C@@]3(OC(C)=O)[C@H]2[C@H](OC(=O)c2ccccc2)[C@]2(O)C[C@H](OC(=O)[C@H](O)[C@@H](NC(=O)OC(C)(C)C)c3ccccn3)C(C)=C1C2(C)C [PCMI-33]" test_readout=recovery measured_result=94
molecule="CO[C@H]1C(=O)[C@]2(C)CC[C@H]3OC[C@@]3(OC(C)=O)[C@H]2[C@H](OC(=O)c2ccccc2)[C@]2(O)C[C@H](OC(=O)[C@H](O)[C@H](CC(C)C)NC(=O)OC(C)(C)C)C(C)=C1C2(C)C [PCMI-42]" test_readout=recovery measured_result=67.3
molecule="COC(=O)O[C@H]1C[C@H]2OC[C@@]2(OC(C)=O)[C@H]2[C@H](OC(=O)c3ccccc3)[C@]3(O)C[C@H](OC(=O)[C@H](O)[C@@H](NC(=O)OC(C)(C)C)c4ccccc4)C(C)=C([C@@H](OC)C(=O)[C@]12C)C3(C)C [PCMI-36]" test_readout=recovery measured_result=81.4

For every record below, what is its recovery?
1. CCSC(=O)O[C@H]1C(=O)[C@]2(C)[C@@H](OC)C[C@H]3OC[C@@]3(OC(C)=O)[C@H]2[C@H](OC(=O)c2ccccc2)[C@]2(O)C[C@H](OC(=O)[C@H](O)[C@@H](NC(=O)OC(C)(C)C)c3ccccc3)C(C)=C1C2(C)C [PCMI-30]
2. CO[C@H]1C[C@H]2OC[C@@]2(OC(C)=O)[C@H]2[C@H](OC(=O)c3ccccc3)[C@]3(O)C[C@H](OC(=O)[C@H](O)[C@@H](NC(=O)c4ccccc4)c4ccccc4)C(C)=C([C@@H](OC(=O)N(C)C)C(=O)[C@]12C)C3(C)C [PCMI-23]
3. CO[C@H]1C(=O)[C@]2(C)[C@@H](OC(=O)N(C)C)C[C@H]3OC[C@@]3(OC(C)=O)[C@H]2[C@H](OC(=O)c2ccccc2)[C@]2(O)C[C@H](OC(=O)[C@H](O)[C@@H](NC(=O)N(C)C)c3ccccc3)C(C)=C1C2(C)C [PCMI-35]

output:
1. 82.6
2. 74
3. 87.6

---

# Method description: Caco-2 cell monolayer membrane transport assay
# Assay conditions: human, Caco-2, Recovery rate in mass, Mean, Caco-2; A-B; mean of two samples
Please go through the items and note down their recovery.

For every item in the list below, what is its measured recovery?
1. CO[C@H]1C[C@H]2OC[C@@]2(OC(C)=O)[C@H]2[C@H](OC(=O)c3ccccc3)[C@]3(O)C[C@H](OC(=O)[C@H](O)[C@@H](NC(=O)c4ccccc4)c4ccccc4)C(C)=C([C@@H](OC(=O)N(C)C)C(=O)[C@]12C)C3(C)C
2. CO[C@H]1C[C@H]2OC[C@@]2(OC(C)=O)[C@H]2[C@H](OC(=O)c3ccccc3)[C@]3(O)C[C@H](OC(=O)[C@H](O)[C@H](CC(C)C)NC(=O)OC(C)(C)C)C(C)=C([C@@H](OC(=O)N(C)C)C(=O)[C@]12C)C3(C)C
3. COC(=O)O[C@H]1C(=O)[C@]2(C)[C@@H](OC)C[C@H]3OC[C@@]3(OC(C)=O)[C@H]2[C@H](OC(=O)c2ccccc2)[C@]2(O)C[C@H](OC(=O)[C@H](O)[C@@H](NC(=O)N(C)C)c3ccccc3)C(C)=C1C2(C)C
4. COC(=O)O[C@H]1C(=O)[C@]2(C)[C@@H](OC)C[C@H]3OC[C@@]3(OC(C)=O)[C@H]2[C@H](OC(=O)c2ccccc2)[C@]2(O)C[C@H](OC(=O)[C@H](O)[C@@H](NC(=O)c3ccccc3)c3ccccc3)C(C)=C1C2(C)C

output:
87.1%
71.2%
99.4%
95.6%

---

# Method description: Caco-2 cell monolayer membrane transport assay
# Assay conditions: human, Caco-2, Recovery rate in mass, Sample-02, Caco-2; A-B; Sample-02
Rule: 1 for recovery not less than 80%, 0 for anything less.

Solved cases (5 shown):
compound="CO[C@H]1C(=O)[C@]2(C)[C@@H](OC(=O)N(C)C)C[C@H]3OC[C@@]3(OC(C)=O)[C@H]2[C@H](OC(=O)c2ccccc2)[C@]2(O)C[C@H](OC(=O)[C@H](O)[C@H](CC(C)C)NC(=O)OC(C)(C)C)C(C)=C1C2(C)C [PCMI-34]" classification=0
compound="CO[C@H]1C(=O)[C@]2(C)C=C[C@@H](O)[C@](CO)(OC(C)=O)[C@H]2[C@H](OC(=O)c2ccccc2)[C@]2(O)C[C@H](OC(=O)[C@H](O)[C@@H](NC(=O)c3ccccc3)c3ccccc3)C(C)=C1C2(C)C [PCMI-43]" classification=0
compound="COC(=O)O[C@H]1C(=O)[C@]2(C)[C@@H](OC)C[C@H]3OC[C@@]3(OC(C)=O)[C@H]2[C@H](OC(=O)c2ccccc2)[C@]2(O)C[C@H](OC(=O)[C@H](O)[C@@H](NC(=O)c3ccccc3)c3ccccc3)C(C)=C1C2(C)C [PCMI-27]" classification=1
compound="COC(=O)O[C@H]1C(=O)[C@]2(C)[C@@H](OC)C[C@H]3OC[C@@]3(OC(C)=O)[C@H]2[C@H](OC(=O)c2ccccc2)[C@]2(O)C[C@H](OC(=O)[C@H](O)[C@@H](NC(=O)N(C)C)c3ccccc3)C(C)=C1C2(C)C [PCMI-29]" classification=1
compound="CO[C@H]1C(=O)[C@]2(C)[C@@H](OC(=O)N(C)C)C[C@H]3OC[C@@]3(OC(C)=O)[C@H]2[C@H](OC(=O)c2ccccc2)[C@]2(O)C[C@H](OC(=O)[C@H](O)[C@@H](NC(=O)OC(C)(C)C)c3ccccc3)C(C)=C1C2(C)C [PCMI-31]" classification=1

input: Is recovery at least 80%? Consider COC(=O)O[C@H]1C[C@H]2OC[C@@]2(OC(C)=O)[C@H]2[C@H](OC(=O)c3ccccc3)[C@]3(O)C[C@H](OC(=O)[C@H](O)[C@H](CC(C)C)NC(=O)OC(C)(C)C)C(C)=C([C@@H](OC)C(=O)[C@]12C)C3(C)C [PCMI-39]
output: 0

input: Check the entry CO[C@H]1C(=O)[C@]2(C)CC[C@H]3OC[C@@]3(OC(C)=O)[C@H]2[C@H](OC(=O)c2ccccc2)[C@]2(O)C[C@H](OC(=O)[C@H](O)[C@@H](NC(=O)OC(C)(C)C)c3ccccc3)C(C)=C1C2(C)C [PCMI-41] : does recovery equal or exceed 80%?
output: 1

---

# Method description: MTT assay, proliferation inhibition
# Format: cell-based
# Assay conditions: Homo sapiens, LN-18 gastric cancer, read-out: Proliferation inhibition rate
Please go through the items and note down their inhibition at 1 µM.
Give bare numbers, in %.

Please review the following examples before continuing.
compound="COC(=O)O[C@H]1C(=O)[C@]2(C)[C@@H](OC)C[C@H]3OC[C@@]3(OC(C)=O)[C@H]2[C@H](OC(=O)c2ccccc2)[C@]2(O)C[C@H](OC(=O)[C@H](O)[C@@H](NC(=O)N(C)C)c3ccccc3)C(C)=C1C2(C)C [PCMI-29]" result_unit=% measured_result=97.7
compound="CC(=O)O[C@H]1C(=O)[C@@]2(C)[C@H]([C@H](OC(=O)c3ccccc3)[C@]3(O)C[C@H](OC(=O)[C@H](O)[C@@H](NC(=O)c4ccccc4)c4ccccc4)C(C)=C1C3(C)C)[C@]1(OC(C)=O)CO[C@@H]1C[C@@H]2O [Paclitaxel, reference compound]" result_unit=% measured_result=94.5
compound="COC(=O)O[C@H]1C(=O)[C@]2(C)[C@@H](OC)C[C@H]3OC[C@@]3(OC(C)=O)[C@H]2[C@H](OC(=O)c2ccccc2)[C@]2(O)C[C@H](OC(=O)[C@H](O)[C@@H](NC(=O)c3ccccc3)c3ccccc3)C(C)=C1C2(C)C [PCMI-27]" result_unit=% measured_result=96.3
compound="CO[C@H]1C(=O)[C@]2(C)C=C[C@@H](O)[C@](CO)(OC(C)=O)[C@H]2[C@H](OC(=O)c2ccccc2)[C@]2(O)C[C@H](OC(=O)[C@H](O)[C@@H](NC(=O)c3ccccc3)c3ccccc3)C(C)=C1C2(C)C [PCMI-43]" result_unit=% measured_result=73.2
compound="COC(=O)O[C@H]1C[C@H]2OC[C@@]2(OC(C)=O)[C@H]2[C@H](OC(=O)c3ccccc3)[C@]3(O)C[C@H](OC(=O)[C@H](O)[C@@H](NC(=O)c4ccccc4)c4ccccc4)C(C)=C([C@@H](OC)C(=O)[C@]12C)C3(C)C [PCMI-37]" result_unit=% measured_result=98.3
compound="CO[C@H]1C(=O)[C@]2(C)CC[C@H]3OC[C@@]3(OC(C)=O)[C@H]2[C@H](OC(=O)c2ccccc2)[C@]2(O)C[C@H](OC(=O)[C@H](O)[C@@H](NC(=O)OC(C)(C)C)c3ccccc3)C(C)=C1C2(C)C [PCMI-41]" result_unit=% measured_result=94.6

Please report inhibition at 1 µM for every entry that follows.
1. CO[C@H]1C[C@H]2OC[C@@]2(OC(C)=O)[C@H]2[C@H](OC(=O)c3ccccc3)[C@]3(O)C[C@H](OC(=O)[C@H](O)[C@@H](NC(=O)c4ccccc4)c4ccccc4)C(C)=C([C@@H](OC(=O)N(C)C)C(=O)[C@]12C)C3(C)C [PCMI-23]
2. CO[C@H]1C(=O)[C@]2(C)[C@@H](OC(=O)N(C)C)C[C@H]3OC[C@@]3(OC(C)=O)[C@H]2[C@H](OC(=O)c2ccccc2)[C@]2(O)C[C@H](OC(=O)[C@H](O)[C@@H](NC(=O)N(C)C)c3ccccc3)C(C)=C1C2(C)C [PCMI-35]

output:
1. 96.3
2. 93.5
